Where these numbers come from: PubChem BioAssay (NCI)

Each record here notes measured TGI.
test system: NCI-H522 lung; test: NCI tumour cell line growth inhibition, 48 h
measured-property: TGI

{"columns": ["compound", "measured-property", "recorded-value"],
 "data": [
  ["Cc1nc(C(N)=S)sc1C(=O)CC(=O)C(=O)Nc1ccccc1[N+](=O)[O-]", "TGI", "> 100 µM"],
  ["COc1ccc(S(=O)(=O)NC(CCC(=O)NN)C(=O)NN)cc1 (stereo not drawn)", "TGI", "> 100 µM"],
  ["c1ccc(N=C(Nc2ccccc2)N2CCCC2)cc1", "TGI", "> 100 µM"]
]}

* * *

system: 786-0 renal; test: NCI tumour cell line growth inhibition, 48 h
# binarize TGI: threshold 3 µM inclusive, high side T, low side F

{"columns": ["molecule", "class-name"],
 "data": [
  ["COc1cc(-c2ccc(-c3ccc(C(=N)N)nc3)s2)cc(OC)c1OC", "T"],
  ["COc1ccccc1C(O)(c1ccccc1)C(O)(c1ccccc1)c1ccccc1OC (stereo not drawn)", "T"],
  ["Nc1c2c(c(O)c3c1=C(CO)C=N3)=NCCS2", "F"],
  ["CC(O)c1cc2c(s1)C(=O)c1ccsc1C2=O (stereo not drawn)", "F"],
  ["Cc1ccc(NC2=C(Cl)C(=O)N(Cc3ccc(Cl)cc3)C2=O)cc1O", "T"],
  ["CN(C)CCCNc1ccc2c(=O)n(CCN(C)C)c(=O)n3c4ccccc4c(=O)c1c23", "F"],
  ["COc1ccc(C(=O)C(C(=O)CC(=O)Nc2cccc(C(F)(F)F)c2)c2ccc(OC)cc2)cc1 (stereo not drawn)", "T"],
  ["C[C@]12CC[C@H](OC3OC(CO)C(O)C(O)C3O)C[C@H]1CC[C@@H]1[C@@H]2CC[C@]2(C)[C@@H](C3=CCOC3=O)CC[C@]12O (stereo partly drawn)", "T"]
]}

* * *

system: SN12C renal; assay: NCI tumour cell line growth inhibition, 48 h
measured-property: TGI (µM)

{"columns": ["smiles-representation", "inequality-sign", "recorded-value"],
 "data": [
  ["O=C1Cc2c([nH]c3ccccc23)-c2ccccc2N1", ">", 100],
  ["COc1ccc2nccc(SCC(=O)O)c2c1", ">", 100],
  ["COc1cc(-c2ccc(-c3ccc(C(=N)N)nc3)s2)cc(OC)c1OC", "=", 4.71],
  ["COc1ccc(NC([Se])=NC23CC4CC(CC(C4)C2)C3)cc1", "=", 8.81]
]}

* * *

system: K-562 leukemia; assay: NCI tumour cell line growth inhibition, 48 h
*1 amine or outer side, *2 acyl side, *3 side chain or, on linkers, in order; H or OH if unused. Where a SMILES comes first, the peptide text is derived from it. Bridges are numbered along the chain shown (N, C = ends). Roman numbers before positions name the chains, in order. [ ]: non-standard residue; d: D form. Actinocin(9to1) = Cc1c2oc3c(C)ccc(C(=O)[*:1])c3nc-2c(C(=O)[*:2])c(N)c1=O; NMeT = CN[CH](C(=O)O)[CH](C)O; Sar = CNCC(=O)O
Each record here notes measured TGI.
measured-property: TGI

{"columns": ["compound", "study-system", "measured-property", "recorded-value"],
 "data": [
  ["Cc1cccc2c1C(=O)[C@](C)([C@]1(C)Nc3cccc(C)c3C1=O)N2", "K-562 leukemia", "TGI", "> 100 µM"],
  ["Cc1c2oc3c(C)ccc(C(=O)NC4C(=O)NC(C(C)C)C(=O)N5CCCC5C(=O)N(C)CC(=O)N(C)C(C(C)O)C(=O)OC4C)c3nc-2c(C(=O)NC2C(=O)NC(C(C)C)C(=O)N3CCCC3C(=O)N(C)CC(=O)N(C)C(C(C)O)C(=O)OC2C)c(N)c1=O (stereo not drawn) (I: TVP[Sar][NMeT] / II: TVP[Sar][NMeT]; ester I:1-I:C, II:1-II:C; linker I:N-II:N via Actinocin(9to1); configuration not given here)", "K-562 leukemia", "TGI", "> 36.5 µM"],
  ["CC(C)(C)[Si](C)(C)Oc1cc(CO)cc2c1cc(=N)o[n+]2[O-]", "K-562 leukemia", "TGI", "> 10 µM"]
]}
